format: physicochemical; set-up: key: 1 = fibrils present; 0 non-fibrillar structures; details: FigS12 panel B; TEM
Parameter measured: Fibril
Enter the number alone.

So, "PPFHPPPFHP" ? Its Fibril was 0

// recorded Fibril for "KAKAKAQA" : 0

Form: substance = "KNDKND" ; Fibril = 0

// sample "KIEIQINM" , its Fibril was 1

The value of Fibril measured for the substance "EIEIEIEI" turned out to be 1

Looking up "EFEFQF" , I see its Fibril listed as 0

What the record says about "CETMYDKILKNLSRSR" : Fibril is 0

get_value(item= "SISISRRI" , readout=Fibril) returns 0

response.value for "HRRHFRHKITKKK" (field: Fibril) = 0

GET /value?item= "MDQMDQMDQMDQMDQ" &field=Fibril returns 0

Measured Fibril, "MKFKFQF" : 1

Kindly note the recorded Fibril for "RGDKIKIQI" , which is 1

Lab note: "EIKIQINM" gave Fibril of 1

"KVKVQVV" has a reported Fibril of 0

Briefly, Fibril measured for "CSISIQI" : 1

get_value(item= "QCKAKAQA" , readout=Fibril) returns 0

Item: "KFKFQF" | Fibril: 0

The reported Fibril of the substance "CKAKAQANM" was 0

Form field Fibril, entry "QCKIKQII" : 1

###

test: Turbidity, derived count rate of scattered light; format: physicochemical; conditions: log10 of derived count rate of scattered light (turbidity)
For each of the substances below, state its Log10 Count Rate.
I only need the number, thanks.

Entry "CSISIQI" , Log10 Count Rate reported as 4.01

Reported Log10 Count Rate ( "ILKNLSRSRKIKIQIC" ) = 3.379

response.value for "KAKAKAQA" (field: Log10 Count Rate) = 1.886

The substance identified as "CKFKFQFNMW" registered its Log10 Count Rate at 3.613

So, "RGDCKFKFQF" ? Its Log10 Count Rate was 3.1264

In plain terms, "KLKQLL" has a documented Log10 Count Rate of 2.505

Log10 Count Rate reported for this substance "CKIKIQINMW" : 3.692

// recorded Log10 Count Rate for "KVKVQVVV" : 2.213

The value of Log10 Count Rate measured for the substance "KIKIKIQINMWQ" turned out to be 3.205

###

assay type: physicochemical; details: ThT category; 1 if Rel. ThT >2
Parameter measured: ThT Cat,

Looking up "EIEIQINM" , I found its ThT Cat, recorded as 0 (ThT-inactive (N-Fold <2))

Reported ThT Cat, ( "NMWQKIKIQI" ) = 1 (ThT. Cat is 1, if Rel. ThT >2)

The reported ThT Cat, of the substance "CKFKFQFNMW" was 1 (ThT. Cat is 1, if Rel. ThT >2)

// sample "HHHHKIKIQINMYYYY" , its ThT Cat, was 1 (ThT. Cat is 1, if Rel. ThT >2)

Entry "KVKGVGK" ; ThT Cat, = 0 (ThT-inactive (N-Fold <2))

Consider "KIKIKIKIYYYY" . Its measured ThT Cat, is 0 (ThT-inactive (N-Fold <2))

GET /value?item= "RGDKIKIQI" &field=ThT Cat, returns 1 (ThT. Cat is 1, if Rel. ThT >2)

So, "KFKFKFQF" ? Its ThT Cat, was 1 (ThT. Cat is 1, if Rel. ThT >2)

Looking up "EFEFQF" , I found its ThT Cat, recorded as 1 (ThT. Cat is 1, if Rel. ThT >2)

Reported ThT Cat, for "KIKQIIN" was 0 (ThT-inactive (N-Fold <2))

Sample "KFKFQFW" ; ThT Cat, observed: 1 (ThT. Cat is 1, if Rel. ThT >2)

Quick note, ThT Cat, for "ILKNLSRSRKIKIQIC" landed at 1 (ThT. Cat is 1, if Rel. ThT >2)

The value of ThT Cat, measured for the substance "RPRGLLLGNLR" turned out to be 0 (ThT-inactive (N-Fold <2))

GET /value?item= "KIKIQIW" &field=ThT Cat, returns 1 (ThT. Cat is 1, if Rel. ThT >2)

// recorded ThT Cat, for "MKIKIQINMWQ" : 1 (ThT. Cat is 1, if Rel. ThT >2)

The recorded ThT Cat, for "KAKAQANM" is 0 (ThT-inactive (N-Fold <2))

# ThT Cat, (substance: "KIKIQIC" ) is 1 (ThT. Cat is 1, if Rel. ThT >2)

Just so you know, measured ThT Cat, for "QCKAKAQANM" came out at 0 (ThT-inactive (N-Fold <2))
